So I've got a bunch of binders here, and I need their IL-2, % of BMS, at 11.11111111 ug/mL values.
Target: T1, human LAG3 expressed on cells (human, UniProt P18627 23-525)
T1 sequence (looked up): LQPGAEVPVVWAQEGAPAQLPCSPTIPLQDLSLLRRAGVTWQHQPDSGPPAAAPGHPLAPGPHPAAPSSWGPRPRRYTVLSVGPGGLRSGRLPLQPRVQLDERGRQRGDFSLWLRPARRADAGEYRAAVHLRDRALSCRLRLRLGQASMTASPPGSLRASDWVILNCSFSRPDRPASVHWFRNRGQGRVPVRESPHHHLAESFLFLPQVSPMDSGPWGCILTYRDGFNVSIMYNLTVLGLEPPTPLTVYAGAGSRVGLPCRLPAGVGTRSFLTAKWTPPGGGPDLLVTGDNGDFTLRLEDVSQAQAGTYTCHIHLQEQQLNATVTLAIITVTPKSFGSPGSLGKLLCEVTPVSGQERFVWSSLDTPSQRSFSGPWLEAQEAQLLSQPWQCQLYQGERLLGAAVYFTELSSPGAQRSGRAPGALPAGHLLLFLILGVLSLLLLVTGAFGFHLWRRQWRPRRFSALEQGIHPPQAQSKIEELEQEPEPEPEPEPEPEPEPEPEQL
Assay: cell-based or functional assay
Answer with a number only, understood to be in %.

Prompt line: Please report the recorded IL-2, % of BMS, at 11.11111111 ug/mL for sdAb No. 25 (VHH, Fc of the tested form not described; also called sdAb 25; sdAb #25; not shown: Fc part implied by anti-human Fc capture and anti-human IgG Fc detection) VHH: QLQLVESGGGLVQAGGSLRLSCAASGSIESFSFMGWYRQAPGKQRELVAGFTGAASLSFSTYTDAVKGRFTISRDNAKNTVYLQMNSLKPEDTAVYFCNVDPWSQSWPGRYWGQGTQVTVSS .
Response line: 34.1

Prompt line: Please report the recorded IL-2, % of BMS, at 11.11111111 ug/mL for sdAb No. 24 (VHH, Fc of the tested form not described; also called sdAb 24; not shown: Fc part implied by anti-human Fc capture) VHH: QLQLVESGGGLVQPGGSLRLSCAASGFTLNEHAIGWFRQAPGKEREGVSCISSSDGSTYYHDSVKGRFTMSRDDAKNTVYLQMNSLKAEDTAIYYCAAALGRDCQGGQWKTSSWGQGTQVTVSS .
Response line: 47.2

Prompt line: Please report the recorded IL-2, % of BMS, at 11.11111111 ug/mL for sdAb No. 27 (VHH, Fc of the tested form not described; also called sdAb 27; not shown: Fc part implied by anti-human Fc capture and anti-human IgG Fc detection) VHH: QVQLVESGGGLVQPGGSLRLSCAASGFTLDYYAIGWFRQAPGKEREGVSCIRSSDGSTYYADSVKGRFTISSDNTKNTVYLQMNSLKPEDTAVYYCATDRYSDCRGPYENWGQGTQVTVSS .
Response line: 50

Prompt line: Please report the recorded IL-2, % of BMS, at 11.11111111 ug/mL for sdAb No. 1 (VHH, the tested form was captured by anti-human Fc, its Fc is not described; also called sdAb 1; not shown: Fc part implied by anti-human Fc capture) VHH: QLQLVESGGGLVQAGGSLRLSCAASGFTFDDYAIGWFRQAPGKEREGVSCIRSSDGSTYYADSVKGRFTISSDNAKNTVYLQMNSLKPEDTAVYYCAKDNYSDCRGPYHYWGQGTQVTVSS .
Response line: 45.7
